Reported values of Tmax for individual entries
# procedure details: Pharmacokinetic study in rat
# Format: in vivo
# settings: in vivo, po, Tmax (h)
outcome measure: Tmax

In [3]: df
Out[3]:
                              smiles_string  outcome_measure  result
0  COc1cc([C@H]2Oc3ccc([C@H]4Oc5cc(O)cc(O)c5C(=O)[C@@H]4O)cc3O[C@@H]2CO)ccc1O             Tmax  30 min
1  COc1cc([C@@H]2Oc3cc([C@H]4Oc5cc(O)cc(O)c5C(=O)[C@@H]4O)ccc3O[C@H]2CO)ccc1O             Tmax  30 min
2  COc1cc([C@H]2Oc3cc([C@H]4Oc5cc(O)cc(O)c5C(=O)[C@@H]4O)ccc3O[C@@H]2CO)ccc1O             Tmax  30 min

###

Reported values of solubility for individual entries
# procedure details: Silymarin saturated solubility with CAPTISOL® (Example 1, HPLC)
# settings: 0.1 M CAPTISOL in water, 25 °C, aqueous with cosolvent or surfactant or cyclodextrin, thermodynamic from solid, Solubility (mg/ml) of flavonolignan components of silymarin, CAPTISOL® (0.1M) in water, saturated with excess silymarin
outcome measure: solubility

In [3]: df
Out[3]:
                              smiles_string  outcome_measure       result
0  COc1cc([C@H]2Oc3cc([C@H]4Oc5cc(O)cc(O)c5C(=O)[C@@H]4O)ccc3O[C@@H]2CO)ccc1O       solubility   3800 µg/mL
1  COc1cc([C@@H]2Oc3c(O)cc([C@H]4Oc5cc(O)cc(O)c5C(=O)[C@@H]4O)cc3[C@H]2CO)ccc1O       solubility  15300 µg/mL
2  COc1cc([C@H]2Oc3c(O)cc([C@H]4Oc5cc(O)cc(O)c5C(=O)[C@@H]4O)cc3[C@@H]2CO)ccc1O       solubility   1150 µg/mL
3  COc1cc([C@@H]2Oc3cc([C@H]4Oc5cc(O)cc(O)c5C(=O)[C@@H]4O)ccc3O[C@H]2CO)ccc1O       solubility   8930 µg/mL

###

# procedure details: Silymarin saturated solubility with CAPTISOL® (Example 1, HPLC)
# settings: MeOH standard (0.1 mg/ml), reference; share of total normalized peak area
outcome measure: Percentages of flavonolignan components of silymarin in the sample (%)

>>> print(df.to_string())
                                   molecule  numeric_result
0  COc1cc([C@H]2Oc3c(O)cc([C@H]4Oc5cc(O)cc(O)c5C(=O)[C@@H]4O)cc3[C@@H]2CO)ccc1O [Silychristin B]            1.50
1  COc1cc([C@@H]2Oc3cc([C@H]4Oc5cc(O)cc(O)c5C(=O)[C@@H]4O)ccc3O[C@H]2CO)ccc1O [Silybin B]           32.00
2  COc1cc([C@@H]2Oc3c(O)cc([C@H]4Oc5cc(O)cc(O)c5C(=O)[C@@H]4O)cc3[C@H]2CO)ccc1O [Silychristin A]           22.28
3  COc1cc([C@H]2Oc3cc([C@H]4Oc5cc(O)cc(O)c5C(=O)[C@@H]4O)ccc3O[C@@H]2CO)ccc1O [Silybin A]           25.35

###

Reported values of Cmax for individual entries
# procedure details: Pharmacokinetic study in rat
# Format: in vivo
# settings: in vivo, iv, Cmax (ng/mL)
outcome measure: Cmax (ng/mL)

In [3]: df
Out[3]:
                                   compound   unit  numeric_result
0  COc1cc([C@@H]2Oc3cc([C@H]4Oc5cc(O)cc(O)c5C(=O)[C@@H]4O)ccc3O[C@H]2CO)ccc1O [Silybin B]  ng/mL           12700
1  COc1cc([C@H]2Oc3ccc([C@H]4Oc5cc(O)cc(O)c5C(=O)[C@@H]4O)cc3O[C@@H]2CO)ccc1O [Isosilybin A]  ng/mL            4160
2  COc1cc([C@H]2Oc3cc([C@H]4Oc5cc(O)cc(O)c5C(=O)[C@@H]4O)ccc3O[C@@H]2CO)ccc1O [Silybin A]  ng/mL            7910
